# targetDesc: CDK2/Cyclin E1 (Homo sapiens)
# Construct: Wild-type full length CDK2/wild-type full length Cyclin E1 enzyme complex was produced in-house
# procedureSummary: CDK2/Cyclin E1 mobility shift assay
# Assay type: biochemical
# conditionNotes: geometric mean, 150 μM ATP
propertyName: pKi
Please note pKi is a logarithmic value: minus log10 of concentration in mol/L. Answer with that number alone.

Consider C[C@@]1(O)CCC[C@H]1n1c(=O)c(CC(F)F)cc2cnc(NC3CCN(S(N)(=O)=O)CC3)nc21 . Its measured pKi is 10.10

====

# Test system: phosphorylation of Rb protein at serines 807/811 in MCF7 cells
# procedureSummary: Phospho-Serine 807/811 Rb ELISA in MCF7 cells
# Format: cell-based
# conditionNotes: Homo sapiens; MCF7; mean; treated 24 h (overnight); read-out: IC50 ± SEM, modulation of pRB Serine 807/811
propertyName: IC50
Please don't drop the unit; write it after the number.

Sample C[C@@]1(O)CCC[C@H]1n1c(=O)c(CC(F)F)cc2cnc(NC3CCN(S(N)(=O)=O)CC3)nc21 ; IC50 observed: 148 nM

====

# Test system: NCIH358
# procedureSummary: Cell proliferation assay (CYQUANT, 7 days), NCIH358
# Type: cell-based
# conditionNotes: Homo sapiens, NCI-H358, 168 h, read-out: IC50 ± SEM, proliferation inhibition
propertyName: pIC50
FYI, pIC50 means -log10 of a concentration in mol per litre.

Entry C[C@@]1(O)CCC[C@H]1n1c(=O)c(C(F)F)cc2cnc(NC3CCN(S(C)(=O)=O)CC3)nc21 [Compound 2, reference compound] — recorded pIC50 = 7.41
